# TEST_METHOD_NOTES: NCI Yeast Anticancer Drug Screen. Data for the sgs1 strain (AID 173)
# PARTICULARS: S. cerevisiae sgs1 mutant, at 11.0 µM
Compounds without any hit were thinned out: in the full panel of roughly 79,000, 15% have a hit. Active and inactive are the calls of the source. Cut-off read from the data, not from the text of the source: active = growth inhibition above about 70%; inactive = the rest. Residues, ends and D or L forms follow the SMILES beside them. *: point of attachment. CH2Cl = ClC*
Allowed answers: Yes for active, No for inactive

- COMPOUND: "CC(=O)NC(CC(C)C)C(=O)NC(Cc1ccccc1)C(=O)CCl (stereo not drawn) (Ac-Leu-Phe-CH2Cl; configuration not given here)"
  CATEGORY: "No"
- COMPOUND: "N#CC(=C1C=CC(=NO)C=C1)c1ccccc1"
  CATEGORY: "Yes"
- COMPOUND: "Nc1ccc(CCl)cc1Cc1c(O)ccc2ccccc12"
  CATEGORY: "No"
- COMPOUND: "CC(=O)OCC1OC(O[C@H]2C=C[C@@H](C(=O)OCc3ccccc3)n3c(=O)n(-c4ccccc4)c(=O)n32)C(OC(C)=O)C(OC(C)=O)C1OC(C)=O (stereo partly specified)"
  CATEGORY: "No"
- COMPOUND: "Nc1cc(F)cc2c1-c1ccc(F)cc1C2"
  CATEGORY: "No"
- COMPOUND: "CC(C)(C)[OH+][O-].[O-]c1ccc(Cl)cc1C=Nc1ccc(Cl)cc1[O-].[O]=[V]"
  CATEGORY: "No"
- COMPOUND: "On1cnc(=S)c2[nH]cnc21"
  CATEGORY: "No"
- COMPOUND: "COc1ccc(S(=O)(=O)N/N=C\\c2cc([N+](=O)[O-])cc(I)c2O)c(OC)c1OC"
  CATEGORY: "No"
- COMPOUND: "COc1ccc(/C=C(\\NC(=O)c2ccccc2)C(=O)NN(C)c2ccnc3cc(Cl)ccc23)cc1OC"
  CATEGORY: "No"
- COMPOUND: "OC(CN1CCCCC1)c1cc(Cl)c(Cl)c(Cl)c1 (stereo unspecified)"
  CATEGORY: "No"

Per the records of this test, what outcome belongs to `CN(C)CCN1C(=O)c2cccc3cc([N+](=O)[O-])cc(c23)C1=O` ? No

Assay outcome for `COc1ccc2c(c1)[nH]c1c(/C=C/c3ccccc3)nccc12` : what was it? No

Hi, sorry to bother you, what did the test record for `CCOc1ccc(C(=O)CCC(=O)O)c(C)c1` ? No

Name the outcome recorded for `COc1cc(/C=C/c2sc3ccccc3[n+]2C)ccc1N(C)C` in the assay. No

# outcome recorded in this test, key = O=C1C(Cl)=C(Cl)C(Cl)(Cl)C(Cl)C1(Cl)Cl (stereo unspecified) Yes

Values were extracted from PubChem BioAssay (NCI).
